protein stability index by entry:
B1: MIA2 (parent)
chain: DMVSNIELPTRIHEEVYFEPSSSK

Variants of: B1
Test: protein stability index of a GFP-peptide fusion (GPS, HEK-293T) (PSI 1-6); higher = more stable;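 note: lentivirally expressed fusions sorted by FACS into six bins by GFP to DsRed ratio, PSI derived from sequencing read proportions per bin multiplied by bin number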
Conditions: c terminus: a fixed tail appended
Respond using a number only.

| sequence-content | protein stability index |
| --- | --- |
| DMVSNIELPTRIHEEVYFEWSSSK | 2.63 |
| DMVSNIELPTRIHEEVYFEPSSSA | 3.64 |
| DMVSNIELPTRIHEEVYFEQSSSK | 4.02 |

Please look at this variant and report its protein stability index: "DMVSNITLPTRIHEEVYFEPSSSK"
2.78

Please look at this variant and report its protein stability index: "DMVSNIELPTRIHEEVYFEPGSSK"
4.47

Please look at this variant and report its protein stability index: "DMVSNIELPTQIHEEVYFEPSSSK"
4.42

Just for reference, the supplement of paper PMC10567573 is where these values come from.
